Give melting point for every item shown.

Example results:
Compound	Value type	Data value
N#CC1=C(N)Oc2ccc3ccc(O)cc3c2C1c1ccc([N+](=O)[O-])cc1 (centres unmarked)	melting point	262 to 263 °C
N#CC1=C(N)Oc2ccc3ccc(O)cc3c2C1c1ccc(F)cc1 (centres unmarked)	melting point	272 °C
N#CC1=C(N)Oc2ccc3ccc(O)cc3c2C1c1ccc2c(c1)OCO2 (centres unmarked)	melting point	260 to 261 °C
N#CC1=C(N)Oc2ccc3ccc(O)cc3c2C1c1cccc(Cl)c1 (centres unmarked)	melting point	260 to 261 °C

Next, consider the following compound.
melting point reading for N#CC1=C(N)Oc2ccc3ccc(O)cc3c2C1c1ccc(OCc2ccccc2)cc1 (centres unmarked) : 269 to 279 °C

Origin of measurements: paper PMC10981727
